Reference source: ChEMBL document CHEMBL1799981

# assay comment: Antiplatelet activity in rabbit platelet rich plasma assessed as inhibition of ADP-induced aggregation at 1 mM treated for 5 mins before ADP challenge by turbidimetry
# Format: functional
# condition summary: Oryctolagus cuniculus
recorded endpoint: inhibition at 1000 µM (%)
Give bare numbers, in %.

Below are worked cases with known answers.
[
  {
    "molecule": "CCCCC(OC(=O)CN1CCCCC1)c1ccccc1C(=O)Oc1ccc(/C=C/C(=O)NCCO[N+](=O)[O-])cc1.Cl (centres undefined)",
    "inhibition at 1000 µM (%)": 82.4
  },
  {
    "molecule": "CCCCC(OC(=O)CN(CC)CC)c1ccccc1C(=O)O (centres undefined)",
    "inhibition at 1000 µM (%)": 67.2
  },
  {
    "molecule": "COc1cc(/C=C/C(=O)NCCO[N+](=O)[O-])ccc1O",
    "inhibition at 1000 µM (%)": 51.3
  }
]

Attention now shifts to the item below.
// query inhibition at 1000 µM value for entry CCCCC1OC(=O)c2ccccc21 (racemic) [RAC-3-N-BUTYLPHTHALIDE] 67.8

====

# assay comment: Induction of NO release from the compound in phosphate buffer at pH 7.4 at 0.1 mM incubated for 15 to 300 mins measured every 15 mins for 120 mins and every 30 mins for remaining time by Griess assay
# Assay type: physicochemical
# condition summary: pH 7.4, 100 µM
We label by threshold. Values of Activity strictly beneath 0.04 µg/mL are fulfilled. Values of 0.04 µg/mL and up are not fulfilled.

[
  {
    "compound": "CCCCC(OC(=O)CN(CC)CC)c1ccccc1C(=O)Oc1ccc(/C=C/C(=O)NCCO[N+](=O)[O-])cc1OC.Cl (stereo not given)",
    "label value": "not fulfilled"
  }
]

Is the reported Activity for CCCCC(OC(C)=O)c1ccccc1C(=O)Oc1ccc(/C=C/C(=O)NCC(C)O[N+](=O)[O-])cc1OC (stereo not given) strictly below 0.04 µg/mL? fulfilled

Could you do the same for CCCCC(OC(=O)CN1CCOCC1)c1ccccc1C(=O)Oc1ccc(/C=C/C(=O)NCCO[N+](=O)[O-])cc1.Cl (stereo not given) , please? not fulfilled

Could you do the same for CCCCC(OC(C)=O)c1ccccc1C(=O)Oc1ccc(/C=C/C(=O)NCCO[N+](=O)[O-])cc1 (stereo not given) , please? fulfilled

Could you do the same for CCCCC(OC(=O)CN1CCCCC1)c1ccccc1C(=O)Oc1ccc(/C=C/C(=O)NCCO[N+](=O)[O-])cc1OC.Cl (stereo not given) , please? not fulfilled

====

For each of the compounds below, state its inhibition at 1000 µM.
# assay comment: Antiplatelet activity in rabbit platelet rich plasma assessed as inhibition of ADP-induced aggregation at 1 mM treated for 5 mins before ADP challenge by turbidimetry
# Type: functional
# condition summary: Oryctolagus cuniculus
Answers are plain numbers, in %.

[
  {
    "compound": "CCCCC(OC(=O)CN(CC)CC)c1ccccc1C(=O)Oc1ccc(/C=C/C(=O)NCCO[N+](=O)[O-])cc1OC.Cl (centres undefined)",
    "uom": "%",
    "value measured": 83
  },
  {
    "compound": "CCCCC(OC(=O)CN(CC)CC)c1ccccc1C(=O)Oc1ccc(/C=C/C(=O)NCCCO[N+](=O)[O-])cc1.Cl (centres undefined)",
    "uom": "%",
    "value measured": 82.1
  },
  {
    "compound": "CC(=O)Oc1ccccc1C(=O)O",
    "uom": "%",
    "value measured": 68.5
  }
]

Attention now shifts to the item below.
// query inhibition at 1000 µM value for entry CCCCC(OC(=O)CN1CCCCC1)c1ccccc1C(=O)Oc1ccc(/C=C/C(=O)NCCO[N+](=O)[O-])cc1OC.Cl (centres undefined) 83
